Experiment: Pharmacokinetic analysis (intravenous and oral), Method B9
Type: in vivo
Settings: Table 10b; 2 mg/mL intravenous typically employed
From the text: B9. Pharmacokinetic Analysis The pharmacokinetic (PK) behavior of compounds of the invention and their pharmaceutical compositions can be ascertained by methods well known to those skilled in the art and can be used to investigate the pharmacokinetic parameters (elimination half-life, total plasma clearance, etc.) for intravenous, subcutaneous and oral administration of these substances. […]
ATTRIBUTE MEASURED: Cl (mL/min/kg)

(P) CC[C@@H]1C#Cc2ccc(F)cc2O[C@H](C)CN[C@@H](C2(C)CC2)C(=O)N(C)[C@@H](C(C)O)C(=O)N[C@H](Cc2c[nH]c3ccccc23)C(=O)N1 (stereo partly drawn)
(Q) CC[C@@H]1C#Cc2ccccc2O[C@H](C)CN[C@@H](C2(C)CC2)C(=O)N(C)[C@@H](C(C)O)C(=O)N[C@H](Cc2c[nH]c3ccccc23)C(=O)N1 (stereo partly drawn)
(R) CC[C@@H]1CCc2ccc(F)cc2OCCN[C@@H](C2(C)CC2)C(=O)N(C)[C@@H](C(C)O)C(=O)N[C@H](Cc2ccccc2)C(=O)N1 (stereo partly drawn)
(S) CC[C@@H]1CCc2ccc(F)cc2OCCN[C@@H](C(C)C)C(=O)N(C)[C@@H](C(C)O)C(=O)N[C@H](Cc2ccc(O)cc2)C(=O)N1 (stereo partly drawn)
Input: Give the order of the entries above, sorted from least to greatest Cl. Ranked list of labels, please, in the requested order.
Output: Q, P, R, S
(Q: 5 mL/min/kg, P: 8 mL/min/kg, R: 12 mL/min/kg, S: 32 mL/min/kg)

(P) CCC1CCc2ccc(F)cc2OCCNC(C2(C)CC2)C(=O)N(C)C(C(C)O)C(=O)NC(Cc2c[nH]c3ccccc23)C(=O)N1 (stereo not drawn)
(Q) CC(O)[C@H]1C(=O)N[C@H](Cc2c[nH]c3ccccc23)C(=O)N[C@H](C)CCc2ccc(F)cc2O[C@H](C)CN[C@@H](C2(C)CC2)C(=O)N1C (stereo partly drawn)
Input: For the pair P and Q , which entry has the numerically smaller recorded Cl? Indicate which entry you chose by stating its label.
Output: P

----------
List of IC50 values.
Molecular target: human ghrelin receptor (GRLN, growth hormone secretagogue receptor, hGHS-R1a) (Homo sapiens, UniProt Q92847)
Construct: purchased PerkinElmer BioSignal #RBHGHSM, lot#1887; host or cells: HEK-293 cells, stably transfected (membranes)
Sequence (Q92847 whole entry): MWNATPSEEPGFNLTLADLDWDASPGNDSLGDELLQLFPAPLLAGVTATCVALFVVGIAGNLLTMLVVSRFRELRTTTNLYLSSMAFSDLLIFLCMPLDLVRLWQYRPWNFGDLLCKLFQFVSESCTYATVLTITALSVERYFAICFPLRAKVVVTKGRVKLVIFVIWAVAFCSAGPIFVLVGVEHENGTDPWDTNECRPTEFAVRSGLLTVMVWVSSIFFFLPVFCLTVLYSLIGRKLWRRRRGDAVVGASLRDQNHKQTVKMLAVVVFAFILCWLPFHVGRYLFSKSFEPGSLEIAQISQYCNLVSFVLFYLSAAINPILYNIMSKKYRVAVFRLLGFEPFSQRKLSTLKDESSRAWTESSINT
Assay: Competitive radioligand binding assay (ghrelin receptor), Method B1
Conditions: Ghrelin receptor binding activity, Method B1
Description: Multiscreen Harvest plates-GF/C (Millipore, #MAHFC1H60) • 4. […] Bottom seal (Millipore, #MATAH0P00) • 7. […] Binding Buffer: 25 mM Hepes (pH 7.4), 1 mM CaCl2, 5 mM MgCl2. 2.5 mM EDTA, 0.4% BSA […] Plates were sealed with TopSeal-A, vortexed gently and incubated at rt for 30 min. […] Plates were than sealed with TopSeal-A and counted for 30 sec per well on a TopCount Microplate Scintillation and Luminescence Counter (PerkinElmer) using a count delay of 60 sec. Results were expressed as counts per minute (cpm). […]

Previously resolved entries follow.
COMPOUND: CCC(C)[C@@H]1NCCOc2ccccc2/C=C/CNC(=O)[C@@H](Cc2ccncc2)NC(=O)[C@H](C(C)O)N(C)C1=O (stereo partly drawn) [Compound 1330]
TEST RESULT: 100 to 500 nM
//
COMPOUND: CC(O)C1C(=O)NC(Cc2ccccc2)C(=O)NC(CC(F)(F)F)CCc2ccc(F)cc2OCCNC(C2(C)CC2)C(=O)N1C (stereo not drawn) [Compound 1921]
TEST RESULT: 100 to 500 nM
//
COMPOUND: CC(O)[C@H]1C(=O)N[C@H](Cc2ccc(F)cc2)C(=O)N[C@H](C)CCc2ccccc2OCCN[C@@H](C2CCCCC2)C(=O)N1C (stereo partly drawn) [Compound 1743]
TEST RESULT: 10 to 100 nM
//
COMPOUND: CC[C@@H]1CCc2c(C#N)cccc2OCCN[C@@H](C2(C)CC2)C(=O)N(C)[C@@H](C(C)O)C(=O)N[C@H](Cc2ccccc2)C(=O)N1 (stereo partly drawn) [Compound 1895]
TEST RESULT: 100 to 500 nM

Input: Let me know recorded IC50 for CC(C)C1NCCOc2cc(F)ccc2C=CCNC(=O)C(Cc2ccccc2)NC(=O)C(C(C)O)N(C)C1=O (stereo not drawn) [Compound 1702] , thanks.
Output: 1 to 10 nM

Input: Let me know recorded IC50 for CC(C)C1NCCOc2cccc(F)c2C=CCNC(=O)C(C(C)c2ccccc2)NC(=O)C(C(C)O)N(C)C1=O (stereo not drawn) [Compound 1811] , thanks.
Output: 10 to 100 nM

----------
Target: human ghrelin receptor (GRLN, growth hormone secretagogue receptor, hGHS-R1a) (Homo sapiens)
Construct: purchased PerkinElmer BioSignal #RBHGHSM, lot#1887; host or cells: HEK-293 cells, stably transfected (membranes)
Assay: Competitive radioligand binding assay (ghrelin receptor), Method B1
Settings: Ghrelin receptor binding activity, Method B1
pIC50: −log10 of the molar value.
ATTRIBUTE MEASURED: pIC50

Previously resolved entries follow.
COMPOUND: CCC(C)C1NCCOc2ccccc2C=CCNC(=O)C(Cc2ccc(Cl)cc2)NC(=O)C(C(C)OC(C)=O)N(C)C1=O (stereo not drawn) [Compound 1842]
TEST RESULT: 6.30 to 7.00

COMPOUND: CCCC1CCc2ccccc2OCCNC(C(C)C)C(=O)N(C)C(C(C)O)C(=O)NC(Cc2cccc(F)c2)C(=O)N1 (stereo not drawn) [Compound 1696]
TEST RESULT: < 6.30

COMPOUND: CCC(C)[C@@H]1NCCO[C@H]2CCCC[C@H]2CCCNC(=O)[C@@H](Cc2ccc(Cl)cc2)NC(=O)[C@H](C(C)O)N(C)C1=O (stereo partly drawn) [Compound 1715]
TEST RESULT: 8.00 to 9.00

COMPOUND: CC[C@@H]1CCc2c(F)cccc2OCCN[C@@H](C(C)C)C(=O)N(C)[C@@H](C(C)O)C(=O)N[C@H](Cc2c[nH]c3ccccc23)C(=O)N1 (stereo partly drawn) [Compound 1725]
TEST RESULT: 7.00 to 8.00

Input: Let me know recorded pIC50 for CCC1CCc2ccccc2OCCNC(C(C)C)C(=O)N(C)C(C(C)O)C(=O)NC(Cc2c[nH]c3ccc(F)cc23)C(=O)N1 (stereo not drawn) [Compound 1808] , thanks.
Output: 8.00 to 9.00

Input: Let me know recorded pIC50 for CCC(C)[C@@H]1NCCOc2ccccc2/C=C/[C@@H](C)NC(=O)[C@@H](Cc2ccccc2)NC(=O)[C@H](C(C)O)N(C)C1=O (stereo partly drawn) [Compound 1315] , thanks.
Output: 8.00 to 9.00

Input: Let me know recorded pIC50 for CC(O)[C@H]1C(=O)N[C@H](Cc2c[nH]c3ccccc23)C(=O)N[C@H](C)C#Cc2ccccc2OCCN[C@@H](C2(C)CC2)C(=O)N1C (stereo partly drawn) [Compound 1713] , thanks.
Output: 8.00 to 9.00

Input: Let me know recorded pIC50 for CC[C@@H]1CCc2c(cccc2C(F)(F)F)OCCN[C@@H](C2(C)CC2)C(=O)N(C)[C@@H](C(C)O)C(=O)N[C@H](Cc2ccccc2)C(=O)N1 (stereo partly drawn) [Compound 1912] , thanks.
Output: < 6.30

Input: Let me know recorded pIC50 for CC[C@@H]1CCc2c(F)cccc2OCCN[C@@H](C(C)C)C(=O)N(C)[C@@H](C(C)O)C(=O)N[C@H](Cc2ccccc2)C(=O)N1 (stereo partly drawn) [Compound 1722] , thanks.
Output: 7.00 to 8.00

----------
Test: Pharmacokinetic analysis (intravenous and oral), Method B9
Assay type: in vivo
Conditions: plasma; Intravenous, 2 mg/kg
Description: B9. Pharmacokinetic Analysis The pharmacokinetic (PK) behavior of compounds of the invention and their pharmaceutical compositions can be ascertained by methods well known to those skilled in the art and can be used to investigate the pharmacokinetic parameters (elimination half-life, total plasma clearance, etc.) for intravenous, subcutaneous and oral administration of these substances. […]
ATTRIBUTE MEASURED: half-life (h)

COMPOUND: CC(C)[C@@H]1NCCOc2ccccc2C#CCNC(=O)[C@@H](Cc2ccccc2)NC(=O)[C@H](C(C)O)N(C)C1=O (stereo partly drawn)
half-life [h]: 2.3

(P) CC(C)[C@@H]1NCCOc2cccc(F)c2C#CCNC(=O)[C@@H](Cc2ccccc2)NC(=O)[C@H](C(C)O)N(C)C1=O (stereo partly drawn)
(Q) CC(C)[C@@H]1NCCOc2ccccc2C2CCC(C2)NC(=O)[C@@H](Cc2ccccc2)NC(=O)[C@H](C(C)O)N(C)C1=O (stereo partly drawn)
Input: For the pair P and Q , which entry has the numerically smaller recorded half-life? Indicate which entry you chose by stating its label.
Output: Q
(Q: 1.8 h, P: 2.83 h)
